inhibition by entry:
Target: Vascular endothelial growth factor receptor 2 (Homo sapiens) (UniProt P35968)
Sequence (P35968 whole entry): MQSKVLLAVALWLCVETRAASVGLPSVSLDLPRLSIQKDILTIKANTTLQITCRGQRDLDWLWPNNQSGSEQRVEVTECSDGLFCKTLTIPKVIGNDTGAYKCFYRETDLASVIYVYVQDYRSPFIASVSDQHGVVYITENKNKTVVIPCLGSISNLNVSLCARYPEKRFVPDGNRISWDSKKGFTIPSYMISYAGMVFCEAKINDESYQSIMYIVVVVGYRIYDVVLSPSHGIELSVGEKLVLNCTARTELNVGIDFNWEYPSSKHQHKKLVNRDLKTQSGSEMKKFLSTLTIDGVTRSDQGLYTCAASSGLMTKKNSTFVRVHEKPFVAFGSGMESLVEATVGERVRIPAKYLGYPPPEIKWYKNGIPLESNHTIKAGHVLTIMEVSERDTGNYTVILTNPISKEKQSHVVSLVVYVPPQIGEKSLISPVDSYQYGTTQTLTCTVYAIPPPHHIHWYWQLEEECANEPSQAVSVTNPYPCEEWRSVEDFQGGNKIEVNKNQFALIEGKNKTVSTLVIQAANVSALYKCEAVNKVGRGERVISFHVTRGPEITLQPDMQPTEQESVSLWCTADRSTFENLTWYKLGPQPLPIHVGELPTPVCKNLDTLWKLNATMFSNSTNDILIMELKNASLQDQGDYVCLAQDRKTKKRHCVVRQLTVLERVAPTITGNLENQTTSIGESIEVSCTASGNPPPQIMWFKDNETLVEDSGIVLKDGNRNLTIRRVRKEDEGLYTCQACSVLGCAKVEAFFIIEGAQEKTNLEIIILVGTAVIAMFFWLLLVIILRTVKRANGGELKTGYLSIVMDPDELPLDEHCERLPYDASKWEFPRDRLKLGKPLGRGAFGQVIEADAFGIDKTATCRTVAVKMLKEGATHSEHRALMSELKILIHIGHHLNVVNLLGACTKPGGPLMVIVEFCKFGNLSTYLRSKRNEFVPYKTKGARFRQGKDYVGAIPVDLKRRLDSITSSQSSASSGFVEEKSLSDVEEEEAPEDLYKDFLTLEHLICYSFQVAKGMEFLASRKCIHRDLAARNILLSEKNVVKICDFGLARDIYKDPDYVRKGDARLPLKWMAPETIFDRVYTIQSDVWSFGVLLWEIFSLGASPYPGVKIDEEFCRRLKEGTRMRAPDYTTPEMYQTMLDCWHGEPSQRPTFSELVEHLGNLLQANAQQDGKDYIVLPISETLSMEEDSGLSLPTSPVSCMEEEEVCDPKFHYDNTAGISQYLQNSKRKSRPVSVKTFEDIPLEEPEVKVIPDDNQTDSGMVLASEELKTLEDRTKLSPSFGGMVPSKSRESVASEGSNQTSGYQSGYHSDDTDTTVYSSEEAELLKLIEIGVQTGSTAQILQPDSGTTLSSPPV
Conditions: at 0.1 µM
Description: GSK_PKIS: KDR mean inhibition at 0.1 uM [Nanosyn]
observed.property: inhibition (%)

compound | quantitative.readout
Cc1ccc(-c2cc3c(NC(=O)C4CC4)ncnc3o2)cc1 | 6.12
CS(=O)(=O)CCNCc1ccoc1-c1ccc2ncnc(Nc3ccc(OCc4ccccc4)cc3)c2c1 | 3.88
CNC(=O)c1cncc(/C=C/c2ccccc2C)c1 | 4.29
COc1cccc(-n2ncc3c(N/N=C/c4ccc(C(=O)NCCN(C)C)cc4)ncnc32)c1 | 43.6
CS(=O)(=O)Nc1ccc(-c2cc(-c3ccccc3)cc(C(N)=O)c2N)cc1 | 1.74
CNC(=O)c1ncccc1Nc1nc(Nc2cc3c(cc2OC)CCCN3C(=O)CN(C)C)nc2[nH]ccc12 | 4.97
Cc1c2ccc(N(C)c3ccnc(Nc4cccc(S(N)(=O)=O)c4)n3)cc2nn1C | 76.4
COc1ccc(-c2nn3ncccc3c2-c2ccnc(Nc3ccc(F)c(F)c3)n2)cc1 | 6.9
COc1cc2c(cc1Nc1nc(Nc3cccc(F)c3C(N)=O)c3cc[nH]c3n1)N(C(=O)CN1CCN(C(C)C)CC1)CC2 | 0.99
CCN1CCC(C(=O)Nc2n[nH]c3nnc(-c4cccc(F)c4F)cc23)CC1 | 1.67
CN(C)CCNC(=O)Nc1ccc(N(C)c2ccnc(Nc3ccc(CS(C)(=O)=O)cc3)n2)cc1 | 7.04
N#Cc1ccc2c(-c3ccnc(NC4CC4)n3)c(-c3ccc(F)cc3)nn2c1 | 1.86
FC(F)(F)CNc1nccc(-c2cnn3ncccc23)n1 | 2.14
O=C(Nc1n[nH]c2nnc(-c3cccnc3)cc12)C1CC1 | -0.85
NS(=O)(=O)c1ccc(N/N=C2\C(=O)Nc3ccc(C(=O)NCc4ccncc4)cc32)cc1 | 7.35
NS(=O)(=O)c1ccc(N/N=C2\C(=O)Nc3cccc(CCc4ccncc4)c32)cc1 | 19.6
O=C1Nc2ccccc2/C1=C1\CCc2cc(O)ccc21 | 10.5
N#Cc1cccc(Nc2ncc(-c3ccccc3)o2)c1 | 3.11
CC1=C(C(=O)Nc2ccc3[nH]ncc3c2)C(c2ccc(F)cc2)N=C(c2ccc(C(F)(F)F)nc2)N1 (stereo not given) | 5.88
OCCCNc1nccc(-c2c(-c3ccc(F)cc3)nn3cc(C(F)(F)F)ccc23)n1 | 4.84
COc1cc(N2CCN(C(C)C)CC2)ccc1Nc1nc(Nc2cccc(F)c2C(=O)O)c2cc[nH]c2n1 | 4.67
COc1cccc(Nc2nccc(-c3cnn4ncccc34)n2)c1 | 9.69
O=C(O[C@H]1CN[C@H](C#Cc2cc3ncnc(Nc4ccc(OCc5cccc(F)c5)c(Cl)c4)c3s2)C1)N1CCOCC1 | 2.63
NS(=O)(=O)c1cccc(N/C=C2\C(=O)Nc3ccccc32)c1 | 9.08
CC(C)c1ccc(-c2cc(-c3c[nH]nc3-c3ccccn3)ccn2)cc1 | 9.43
CCS(=O)(=O)c1ccc(OC)c(Nc2ncc(-c3cccc(F)c3)o2)c1 | 46.8
CC1(C)CC(n2cnc(-c3ccc(F)cc3)c2-c2ccnc(N)n2)CC(C)(C)N1 | -0.9
CNC(=O)c1sc(-n2cnc3cc(OC)c(OC)cc32)cc1OCc1ccccc1C(F)(F)F | 4.23
COc1c(C(N)=O)cc(-c2ccc(Cl)cc2)cc1-c1ccc(S(N)(=O)=O)cc1 | 6.96
COC(=O)Nc1nc2cc(Oc3ccc(NC(=O)Nc4ccccc4)cc3)ccc2[nH]1 | 4.55
COc1cc(Nc2ncc(-c3ccccc3)o2)cc(OC)c1 | 6.74
Fc1ccc(Nc2nccc(-c3c(-c4ccc(C(F)(F)F)cc4)nn4ncccc34)n2)cc1F | 5.73
c1cnn2ncc(-c3ccnc(NCCCN4CCOCC4)n3)c2c1 | 5.58
COc1cc(N2CCN(C(C)C)CC2)ccc1Nc1nc(Nc2cccc3ncccc23)c2cc[nH]c2n1 | 1.96
CCCNc1cccc(-n2ncc3c(N/N=C/c4ccncc4)ncnc32)c1 | 17.3
